Taken from patent US20060287509A1.

- Target entity: T1, c-erbB-2 ECD with a Ser-Gly-His6 C-terminal fusion (UniProt P04626 23-652)
- T1 construct: extracellular domain; expressed from CHO cells, IMAC purified; coupled to a CM5 chip, adsorbed to polystyrene, or biotinylated and captured on avidin; also called c-erbB-2 extracellular domain; biotinylated c-erbB-2 ECD
- Test protocol: SPR (BIAcore)
Quantity kind: kon (M⁻¹ s⁻¹)

{"columns": ["Binder", "Data value"],
 "data": [
  ["C6ML3-19 (scFv, C6.5 with this VL CDR3; C-terminal myc and His6 tags) scFv: QVQLLQSGAELKKPGESLKISCKGSGYSFTSYWIAWVRQMPGKGLEYMGLIYPGDSDTKYSPSFQGQVTISVDKSVSTAYLQWSSLKPSDSAVYFCARHDVGYCSSSNCAKWPEYFQHWGQGTLVTVSSGGGGSGGGGSGGGGSQSVLTQPPSVSAAPGQKVTISCSGSSSNIGNNYVSWYQQLPGTAPKLLIYGHTNRPAGVPDRFSGSKSGTSASLAISGFRSEDEADYYCASWDRPLWGWVFGGGTKLTVLG", 670000],
  ["C6ML3-29 (scFv, C6.5 with this VL CDR3; C-terminal myc and His6 tags) scFv: QVQLLQSGAELKKPGESLKISCKGSGYSFTSYWIAWVRQMPGKGLEYMGLIYPGDSDTKYSPSFQGQVTISVDKSVSTAYLQWSSLKPSDSAVYFCARHDVGYCSSSNCAKWPEYFQHWGQGTLVTVSSGGGGSGGGGSGGGGSQSVLTQPPSVSAAPGQKVTISCSGSSSNIGNNYVSWYQQLPGTAPKLLIYGHTNRPAGVPDRFSGSKSGTSASLAISGFRSEDEADYYCAAWDGTLWGWVFGGGTKLTVLG", "1.29e+06"],
  ["C6ML3-7 (scFv, C6.5 with this VL CDR3; C-terminal myc and His6 tags) scFv: QVQLLQSGAELKKPGESLKISCKGSGYSFTSYWIAWVRQMPGKGLEYMGLIYPGDSDTKYSPSFQGQVTISVDKSVSTAYLQWSSLKPSDSAVYFCARHDVGYCSSSNCAKWPEYFQHWGQGTLVTVSSGGGGSGGGGSGGGGSQSVLTQPPSVSAAPGQKVTISCSGSSSNIGNNYVSWYQQLPGTAPKLLIYGHTNRPAGVPDRFSGSKSGTSASLAISGFRSEDEADYYCAAWDYAVSGWVFGGGTKLTVLG", 650000]
]}
